target: TcPARP (Trypanosoma cruzi); assay: Homogeneous fluorometric TcPARP activity assay (remaining NAD+); format: biochemical; conditions: 10 nM TcPARP, 500 nM NAD+; read-out: TcPARP pIC50±SE (converted)
Threshold 0.2 µM: IC50 strictly smaller gives 1.0, otherwise 0.0.

MOLECULE	DISCRETE LABEL
Oc1nc(C2CC2)nc2c1CSCC2 [RF03876]	0.0
NC(=O)c1cccc(N)c1 [Compound 3-AB, 3-aminobenzamide]	0.0
NC(=O)c1cccc2ncc(-c3ccc(Cl)cc3)nc12 [CNQ]	1.0
Nc1ccc2c3c(cccc13)C(=O)NC2=O [Compound 4-ANI]	1.0
Cc1nc2c(c(=O)[nH]1)CSCC2 [DR2313]	0.0
C[C@]1(c2nc3c(C(N)=O)cccc3[nH]2)CCCN1 [Veliparib]	1.0
O=C(c1cc(Cc2n[nH]c(=O)c3ccccc23)ccc1F)N1CCN(C(=O)C2CC2)CC1 [Olaparib]	1.0
O=c1[nH]c2ccccc2c2ccccc12 [Phenanthridinone, 5,6-dihydrophenanthridin-6-one]	0.0
CNCc1ccc(-c2[nH]c3cc(F)cc4c3c2CCNC4=O)cc1 [Rucaparib]	1.0
CN(C)CC(=O)Nc1ccc2[nH]c(=O)c3ccccc3c2c1 [PJ-34]	0.0

====

target: TcPARP (Trypanosoma cruzi, UniProt Q4PQV7); test: Homogeneous fluorometric TcPARP activity assay (remaining NAD+); assay type: biochemical; settings: 10 nM TcPARP, 500 nM NAD+; read-out: TcPARP IC50
Sequence (Q4PQV7 1-592): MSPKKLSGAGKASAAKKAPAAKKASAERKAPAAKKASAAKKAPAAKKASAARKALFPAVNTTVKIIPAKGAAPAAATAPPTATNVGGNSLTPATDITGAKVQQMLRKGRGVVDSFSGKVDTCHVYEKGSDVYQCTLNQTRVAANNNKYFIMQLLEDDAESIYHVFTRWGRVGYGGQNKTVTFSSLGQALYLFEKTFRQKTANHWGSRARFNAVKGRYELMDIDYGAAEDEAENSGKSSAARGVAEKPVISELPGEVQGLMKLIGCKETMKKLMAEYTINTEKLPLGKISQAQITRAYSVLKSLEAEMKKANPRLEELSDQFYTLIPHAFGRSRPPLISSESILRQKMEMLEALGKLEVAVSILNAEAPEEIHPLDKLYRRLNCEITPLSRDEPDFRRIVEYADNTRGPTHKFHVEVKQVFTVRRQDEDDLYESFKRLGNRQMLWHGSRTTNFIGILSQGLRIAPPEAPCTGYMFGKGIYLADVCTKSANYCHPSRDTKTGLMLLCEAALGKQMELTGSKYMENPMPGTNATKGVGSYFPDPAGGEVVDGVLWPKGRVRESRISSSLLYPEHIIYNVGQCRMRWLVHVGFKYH
Reported IC50 values for the following molecules.

MOLECULE	UNIT TAG	IC50
O=c1[nH]c2ccccc2c2ccccc12 [Phenanthridinone, 5,6-dihydrophenanthridin-6-one]	nM	1600
Oc1nc(C2CC2)nc2c1CSCC2	nM	1300
Cn1cccc1/C=C1\C(=O)NC(=O)c2ccccc21	nM	180
NC(=O)c1cccc(N)c1 [Compound 3-AB, 3-aminobenzamide]	nM	26000
C[C@]1(c2nc3c(C(N)=O)cccc3[nH]2)CCCN1	nM	83
CN(C)CC(=O)Nc1ccc2[nH]c(=O)c3ccccc3c2c1	nM	230
CNCc1ccc(-c2[nH]c3cc(F)cc4c3c2CCNC4=O)cc1	nM	25
NC(=O)c1cccc2ncc(-c3ccc(Cl)cc3)nc12	nM	170
Nc1ccc2c3c(cccc13)C(=O)NC2=O	nM	43
O=C(c1cc(Cc2n[nH]c(=O)c3ccccc23)ccc1F)N1CCN(C(=O)C2CC2)CC1	nM	3.4
Cc1nc2c(c(=O)[nH]1)CSCC2	nM	1400
